MIC90 for assorted molecules
tested on: Mycobacterium tuberculosis; experiment: In vitro anti-mycobacterial activity against streptomycin resistant Mycobacterium tuberculosis ATCC 35820 determined by the MTT method; format: functional
quantity-kind: MIC90 (µM)

CC(=O)NC[C@H]1CN(c2ccn(-c3ccc(F)cc3)c2)C(=O)O1 = 39.9
CC(=O)NC[C@H]1CN(c2ccc(N3CCSCC3)c(F)c2)C(=O)O1 = 0.4
CC(=O)NC[C@H]1CN(c2ccn(-c3ccccc3F)c2)C(=O)O1 = 45

----------
MIC90 for assorted molecules
test system: Mycobacterium tuberculosis; assay: In vitro anti-mycobacterial activity against streptomycin resistant Mycobacterium tuberculosis ATCC 35820 determined by the MTT method; assay type: functional
quantity-kind: MIC90

CC(=O)NC[C@H]1CN(c2ccn(-c3ccc(N4CCOCC4)c(F)c3)c2)C(=O)O1 = > 100 µM
CC(=O)NC[C@H]1CN(c2ccn(-c3cccc(F)c3)c2)C(=O)O1 = > 100 µM
CC(=O)NC[C@H]1CN(c2ccn(-c3ccccc3)c2)C(=O)O1 = ≥ 100 µM
NNC(=O)c1ccncc1 [ISONIAZID] = > 100 µM
